// reported OD450 per item
Target: T1, human MSLN-R3 protein (human, UniProt Q13421 487-598)
T1 construct: also called hMSLN-R3
T1 sequence (Q13421 495-606, form in doubt): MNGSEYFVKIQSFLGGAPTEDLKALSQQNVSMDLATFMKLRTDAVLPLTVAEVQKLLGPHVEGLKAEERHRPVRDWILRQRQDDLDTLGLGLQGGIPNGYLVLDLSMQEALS
Experiment: ELISA on coated antigen, antibody 1 nM
Respond numerically; units are OD450 and should not be typed.

F7.44.20-H16 (scFv, not shown: small tags and cut ends, also called S009-F7.44.20 humanized antibody VH2a + VL4) scFv: EVQLVQSGAEVKKPGASVKVSCKASGYTFTDYNMDWVRQAPGQGLEWMGDINPSTGGTIYNQKFSGRVTMTEDKSASTVYMELSSLRSEDTAVYYCARRRIGTGYFDVWGQGTTVTVSSGGGGSGGGGSGGGGSEIVLTQSPATLSLSPGERATLSCSASSSVISSYLSWYQQKPGSSPRLLIYRTSNLASGIPARFSGSGSGTDYTLTISSLEPEDFAVYYCHQWSSFPYTFGGGTKVEIK: 0.72

Q. Form field: reported OD450 of F7.44.20-H3 (scFv, not shown: small tags and cut ends, also called S009-F7.44.20 humanized antibody VH1 + VL3) scFv: EVQLVQSGAEVKKPGASVKVSCKASGYTFTDYNMDWVRQAPGQGLEWMGDINPSTGGTIYNQKFNGRVTMTEDKSTSTVYMELSSLRSEDTAVYYCARRRIGTGYFDVWGQGTTVTVSSGGGGSGGGGSGGGGSEIVLTQSPATLSLSPGERATLSCSASSSVISSYLSWYQQKPGQSPRLLIYRTSNLASGIPARFSGSGSGTDYTLTISSLEPEDFAVYYCHQWSSFPYTFGGGTKVEIK
A. 0.83

Q. Form field: reported OD450 of F7.44.20-H7 (scFv, not shown: small tags and cut ends, also called S009-F7.44.20 humanized antibody VH1a + VL3) scFv: EVQLVQSGAEVKKPGASVKVSCKASGYTFTDYNMDWVRQAPGQGLEWMGDINPSTGGTIYNQKFQGRVTMTEDKSTSTVYMELSSLRSEDTAVYYCARRRIGTGYFDVWGQGTTVTVSSGGGGSGGGGSGGGGSEIVLTQSPATLSLSPGERATLSCSASSSVISSYLSWYQQKPGQSPRLLIYRTSNLASGIPARFSGSGSGTDYTLTISSLEPEDFAVYYCHQWSSFPYTFGGGTKVEIK
A. 1.18

Q. Form field: reported OD450 of F7.44.20-H8 (scFv, not shown: small tags and cut ends, also called S009-F7.44.20 humanized antibody VH1a + VL4) scFv: EVQLVQSGAEVKKPGASVKVSCKASGYTFTDYNMDWVRQAPGQGLEWMGDINPSTGGTIYNQKFQGRVTMTEDKSTSTVYMELSSLRSEDTAVYYCARRRIGTGYFDVWGQGTTVTVSSGGGGSGGGGSGGGGSEIVLTQSPATLSLSPGERATLSCSASSSVISSYLSWYQQKPGSSPRLLIYRTSNLASGIPARFSGSGSGTDYTLTISSLEPEDFAVYYCHQWSSFPYTFGGGTKVEIK
A. 0.76

Q. Form field: reported OD450 of F7.44.20-H13 (scFv, not shown: small tags and cut ends, also called S009-F7.44.20 humanized antibody VH2a + VL1) scFv: EVQLVQSGAEVKKPGASVKVSCKASGYTFTDYNMDWVRQAPGQGLEWMGDINPSTGGTIYNQKFSGRVTMTEDKSASTVYMELSSLRSEDTAVYYCARRRIGTGYFDVWGQGTTVTVSSGGGGSGGGGSGGGGSEIVLTQSPDFQSVTPKEKVTITCSASSSVISSYLSWYQQKPDQSPKLLIYRTSNLASGVPSRFSGSGSGTDFTLTINSLEAEDAATYYCHQWSSFPYTFGGGTKVEIK
A. 0.45
